Source listed as ChEMBL document CHEMBL1156829.

- MEASUREMENT PROTOCOL: NOVARTIS: Cytotoxicity against human hepatocellular carcinoma cell line (Huh7)
- Format: toxicity, cell-based, Huh-7
- MEASUREMENT CONDITIONS: Huh7 cells (hepatocellular carcinoma cell line)
OBSERVABLE: CC50

Query: Answer with the recorded CC50 for the compound listed here: CC(=O)Nc1ccccc1-c1nnn(CC(N)=O)n1
Result: > 100 µM

Query: Identify measured CC50 corresponding to C=CCSc1nc2sc3c(c2c(=O)n1-c1ccccc1)CCN(CCC)C3
Result: > 100 µM

Query: Look up and report measured CC50 for this entry: CC(=O)Nc1ccc2c(c1)C(=O)N(C(CC(C)C)C(=O)NCC(=O)O)[C@@H](CCC(=O)OCc1ccccc1)C(=O)N2 (stereo partly specified)
Result: > 10 µM

Query: Return reported CC50. Input compound: COc1ccccc1NC(=O)CSc1nc2cccnc2n1-c1ccccc1OC
Result: > 10 µM

Query: Annotate the compound COc1ccc(-c2cc(-c3ccccc3)nc(SCC(=O)N3c4ccccc4Sc4ccc(Cl)cc43)c2C#N)cc1 with its measured CC50.
Result: > 10 µM

Query: Annotate the compound O=C(NCc1cccs1)c1ccc(OC2CCN(CC3CCCCC3)CC2)c(Cl)c1 with its measured CC50.
Result: > 10 µM

Query: Entry CCOc1cc2c(cc1OCC)C(c1cc(Cl)ccc1O)NCC2 (stereo unspecified) needs its CC50 filled in; supply it.
Result: 24.2 µM

Query: Consider the compound C=CC[n+]1ccc(/C=C/c2ccccc2)c(C)c1 and give its recorded CC50.
Result: > 10 µM

Query: Entry CCCCc1ccc(C(=O)N(CCC(=O)Nc2nnc(-c3ccc(OC)cc3)s2)CCc2ccc(OC)c(OC)c2)cc1 needs its CC50 filled in; supply it.
Result: > 10 µM

Query: For the compound O=C(CCc1ccccc1)NCCCCNc1ccnc2cc(Cl)ccc12 , give its reported CC50.
Result: > 10 µM

Query: Identify measured CC50 associated with CCCCc1ccc(C(=O)N(C)CCCNc2ccnc3cc(Cl)ccc23)cc1
Result: > 10 µM

Query: Identify CC50 associated with the compound CC[n+]1c(/C=C2\C=C(C)CC(C)C2)sc2ccccc21 (stereo unspecified)
Result: > 10 µM

Query: // Input: COC(=O)c1sccc1S(=O)(=O)N1CCCC(c2[nH]ncc2-c2ccccc2)C1 (stereo unspecified) . Output its CC50 only.
Result: > 100 µM

Query: Quote CC50 reported for Cc1ccccc1Cn1c(C)c[n+]2ccsc12 please.
Result: > 10 µM

Query: Could you please provide reported CC50 for CCOc1cccc2c(C)nc(NC(=N)N)nc12 ? Thanks!
Result: 56.5 µM

Query: Quick one: give measured CC50 for COc1ccc(C=C2SC(=N)N(c3ccc4c(c3)OCO4)C2=O)cc1OC
Result: > 100 µM

###

Give measured pEC50 for each item. Keep answers brief.
- Tested on: Plasmodium falciparum
- MEASUREMENT PROTOCOL: NOVARTIS: Inhibition of Plasmodium falciparum W2 (drug-resistant) proliferation in erythrocyte-based infection assay
- Assay type: functional, organism-based
- MEASUREMENT CONDITIONS: Plasmodium falciparum, W2; read-out: EC50
pEC50: −log10 of the molar value.

Query: Please report the measured pEC50 for O=C(Cc1cccs1)NC1CCN(CC(O)CN(Cc2ccccc2)S(=O)(=O)c2ccccc2)C1 (stereo not given) tested on Plasmodium falciparum.
Result: < 5.90

Query: Please indicate recorded pEC50 of COc1cccc(CN2CCN(C3CCCC(C)C3)CC2)c1OC (stereo not given) measured with Plasmodium falciparum.
Result: < 5.17

Query: State pEC50 (Plasmodium falciparum) of COc1c([N+](=O)[O-])cc2c(c1Br)OC1(C=C2)N(C)c2ccccc2C1(C)C (stereo not given) .
Result: < 5.80

Query: Give pEC50 for this entry on Plasmodium falciparum: CCCCCC(=O)N(CCN(C)C)C(CC)c1nc2ccccc2c(=O)n1-c1ccc(F)cc1 (stereo not given)
Result: < 6.20

Query: Enter recorded pEC50 with Plasmodium falciparum for O=C(CCC1CCCN(C(=O)c2ccsc2)C1)N1CCN(c2ccccn2)CC1 (stereo not given) here.
Result: < 5.96

###

- MEASUREMENT PROTOCOL: NOVARTIS: Cytotoxicity against human hepatocellular carcinoma cell line (Huh7)
- Assay type: toxicity, cell-based, Huh-7
- MEASUREMENT CONDITIONS: Huh7 cells (hepatocellular carcinoma cell line)
OBSERVABLE: CC50

Query: Check the records and state CC50 for COc1ccc(NC2=C(N3CCCCC3)C(=O)c3ccccc3C2=O)cc1
Result: 12.6 µM

Query: Look up and state reported CC50 for COc1cc(NC(C)CCCN(Cc2ccc(OC)c(OC)c2)C(=O)CCC2CCCC2)c2ncccc2c1 (configuration not stated)
Result: 3.99 µM

Query: Give the reported value of CC50 for this record: CCCCCOC(=O)C1=C(C)Nc2ncnn2C1c1cccc([N+](=O)[O-])c1 (configuration not stated)
Result: > 10 µM

Query: # return recorded CC50 for entry COc1ccc2c(c1)C(C)=CC(C)(C)N2C(=O)CSc1nnc(-c2ccc(C)cc2)o1
Result: > 10 µM

Query: // Input: COc1cc(NC(C)CCCN(Cc2ccc(OC)c(OC)c2)C(=O)c2ccccc2)c2ncccc2c1 (configuration not stated) . Output its CC50 only.
Result: > 10 µM

Query: Identify measured CC50 associated with O=C1/C(=N\c2cccc(O)c2)C(N2CCCCC2)=C(O)c2ccccc21
Result: > 100 µM

Query: Annotate the molecule O=C(Nc1ccc(C(=O)Nc2cccc(C3=NCCN3)c2)cc1)c1ccc(C2=NCCN2)cc1 with its measured CC50.
Result: > 100 µM

Query: Please supply the value of reported CC50 for the item CCc1nn(-c2ccccc2)c2nc(-c3cc(Br)ccc3O)c3cc(OC)c(OC)cc3c12
Result: > 100 µM

Query: Consider the molecule COC(=O)C1=C(C(=O)OC)SC(=C2C(=S)C(C)(C)N(C(=O)c3ccc([N+](=O)[O-])cc3)c3ccc(C)cc32)S1 and give its recorded CC50.
Result: > 10 µM

Query: Provide CC50 value for the following molecule: O=[N+]([O-])c1ccc(S(=O)(=O)N2CCN(C(=S)NCC3CCCO3)CC2)cc1 (configuration not stated)
Result: > 100 µM

Query: Annotate the molecule Cn1c(SCC(=O)Nc2cccc(F)c2)nc2c(c1=O)SCC2 with its measured CC50.
Result: > 100 µM

Query: Supply CC50 value. Item: CO[C@H]1[C@@H](C)[C@@H]([C@H](C)C2O[C@@]3(CC[C@@](C)([C@H]4CC[C@@](C)([C@@H]5O[C@@H]([C@H]6O[C@](C)(O)[C@H](C)C[C@@H]6C)C[C@@H]5C)O4)O3)C[C@H](O)[C@@H]2C)O[C@@](O)([C@H](C)C(=O)O)[C@H]1C (some centres not stated)
Result: > 10 µM

###

- MEASUREMENT PROTOCOL: NOVARTIS: Cytotoxicity against human hepatocellular carcinoma cell line (Huh7)
- Format: toxicity, cell-based, Huh-7
- MEASUREMENT CONDITIONS: Huh7 cells (hepatocellular carcinoma cell line)
Give CC50 for every item shown.

Query: Supply reported CC50 belonging to this molecule: COc1cccc2c1C(=O)c1c(O)c3c(c(O)c1C2=O)CC(O)(C(=O)CO)CC3OC1CC(N)C(O)C(C)O1 (configuration not stated)
Result: 5.25 µM

Query: Tell me CC50 reported for Cc1ccc(-c2cc(N3CCCC3CO)n3nccc3n2)cc1 (configuration not stated)
Result: > 100 µM

Query: Please report CC50 for the following molecule: FC(F)(F)c1ccccc1CN1CCc2nc(N3CCCCC3)sc2C1
Result: > 10 µM

Query: Provide measured CC50 value, entry: O=C(NCc1ccccc1)c1cnc(NCCN2CCCCC2)nc1NCCc1ccccc1
Result: > 10 µM

Query: State, in one line, measured CC50 of CN(CCCNc1ccnc2cc(Cl)ccc12)C(=O)c1ccc(Cl)c([N+](=O)[O-])c1
Result: > 7.92 µM

Query: For the molecule CCOC(=O)c1cccc(OC(=O)c2ccccc2)c1 , report CC50.
Result: > 100 µM

Query: # return recorded CC50 for input O=C(Nc1ccc(-c2nc3ccc(-c4nc5ccc(NC(=O)c6cccc7ccccc67)cc5[nH]4)cc3[nH]2)cc1)c1cccc2ccccc12
Result: > 100 µM

Query: Give the value of CC50 reported for the following: CC(=O)N(C1=C(N2CCOCC2)C(=O)c2ccccc2C1=O)c1cc(C)cc(C)c1
Result: 6.94 µM

Query: Annotate the molecule O=C1Nc2ccccc2C12Nc1ccccc1-c1nc3ccccc3n12 (configuration not stated) with its measured CC50.
Result: > 100 µM

Query: Answer with the recorded CC50 of Nc1nnc(CCSc2ccc(Cl)cc2)s1 only.
Result: > 3.71 µM

Query: Report CC50, nothing else, for this molecule: CCOc1ccc(CN(C(=O)COc2ccc(Cl)cc2)C(C)CCCN(CC)CC)cc1 (configuration not stated)
Result: 18.9 µM

Query: Input Cn1ncnc2c(=O)n(C)c(=O)nc1-2 , output reported CC50.
Result: 0.199 µM

Query: Provide measured CC50 value, entry: O=[N+]([O-])c1ccc(Nc2nc(NN=Cc3ccccc3I)nc(Nc3ccccc3)n2)cc1
Result: 32.8 µM

Query: Return CC50 for the following molecule: CC1CCC2C(C)C(=O)OC3OC(C)C4CC1C32OO4 (configuration not stated)
Result: > 10 µM

Query: Output CC50 of CCOC(=O)c1cc(-c2ccccc2)n(CCC(=O)Nc2ccccc2N2CCN(C)CC2)c1C
Result: 17.3 µM

Query: Tell us which CC50 value is on record for CCC1CC2CCC(O2)C(C)C(=O)OC(C)CC2CCC(O2)C(C)C(=O)OC(CC)CC2CCC(O2)C(C)C(=O)OC(C)CC2CCC(O2)C(C)C(=O)O1 (configuration not stated)
Result: 0.356 µM

Query: Return CC50 (reported value) for this molecule: COC(=O)C(C)NC(=O)c1ccc(F)cc1 (configuration not stated)
Result: > 10 µM

Query: Provide CC50 value for the following molecule: COc1ccccc1-c1nnc(Nc2nc3cc4c(cc3s2)OCO4)o1
Result: > 10 µM

Query: Tell us which CC50 value is on record for CCc1c(C(=O)N2CCN(C(=O)CCl)C(C)C2)cnn1-c1nc(-c2ccc(Br)cc2)cs1 (configuration not stated)
Result: > 8.66 µM

Query: Please list CC50 recorded for the molecule O=C(NN=Cc1ccc(O)cc1O)c1ccncc1
Result: > 100 µM

Query: State its CC50 for this molecule: COc1ccc(Br)cc1S(=O)(=O)N1CCCc2ccccc21
Result: > 100 µM

Query: Provide only the value of recorded CC50 for O=C1Nc2ccccc2C1=NN=Cc1ccc(-c2ccccc2[N+](=O)[O-])o1
Result: > 100 µM

Query: For the molecule COC(=O)c1ccc(Nc2nc(NCc3ccco3)c3ccccc3n2)cc1 , report CC50.
Result: 18.8 µM

Query: Entry CN(C)CCNc1ncnc2c1[nH]c1ccc(Cl)cc12 needs its CC50 filled in; supply it.
Result: 20.4 µM

Query: Output CC50 of O=c1[nH]c2cc(Cl)c(Br)nc2[nH]1
Result: > 10 µM

Query: // fetch CC50 given entry CCNC(=O)N(CCCCOc1ccc(C(C)(C)CC)cc1C(C)(C)CC)Cc1ccc(OC)c(OCc2ccccc2)c1
Result: > 10 µM

Query: Answer with reported CC50 of CCOC(=O)c1c(N)n(-c2ccc(CC)cc2)c2nc3ccccc3nc12
Result: > 100 µM
